# Species on record: Homo sapiens
# PROCEDURE_SUMMARY: Selectivity index, ratio of pIC50 of BRD4 BD1 (unknown origin) to pIC50 of BRD4 BD2 (unknown origin)
MEASURED_METRIC: Ratio pIC50

[
  {
    "SMILES_INPUT": "C[C@H](Oc1ccc(C(=O)NC2CC2)cc1-c1cn(C)nn1)c1ccccn1",
    "MEASURED_METRIC": "Ratio pIC50",
    "MODIFIER": "=",
    "VALUE_REPORTED": 100
  },
  {
    "SMILES_INPUT": "Cn1cc(-c2cc(C(=O)NC3CC3)cc(Cc3ccccc3)n2)nn1",
    "MEASURED_METRIC": "Ratio pIC50",
    "MODIFIER": "=",
    "VALUE_REPORTED": 125
  },
  {
    "SMILES_INPUT": "CCNC(=O)c1ccc(OCc2ccccc2)c(-c2cn(C)nn2)c1",
    "MEASURED_METRIC": "Ratio pIC50",
    "MODIFIER": "=",
    "VALUE_REPORTED": 100
  },
  {
    "SMILES_INPUT": "C[C@H](Oc1ccc(C(=O)N[C@H]2CC[C@H](O)CC2)cc1-c1cn(C)nn1)c1ccccn1",
    "MEASURED_METRIC": "Ratio pIC50",
    "MODIFIER": "=",
    "VALUE_REPORTED": 20
  },
  {
    "SMILES_INPUT": "Cn1cc(-c2cc(C(N)=O)cc(Cc3ccccc3)n2)nn1",
    "MEASURED_METRIC": "Ratio pIC50",
    "MODIFIER": "=",
    "VALUE_REPORTED": 50
  },
  {
    "SMILES_INPUT": "CCNC(=O)c1ccc(OCc2cccnc2)c(-c2cn(C)nn2)c1",
    "MEASURED_METRIC": "Ratio pIC50",
    "MODIFIER": ">",
    "VALUE_REPORTED": 50
  },
  {
    "SMILES_INPUT": "CCNC(=O)c1cc(Cc2cccc(OC)c2)nc(-c2cn(C)nn2)c1",
    "MEASURED_METRIC": "Ratio pIC50",
    "MODIFIER": ">",
    "VALUE_REPORTED": 80
  },
  {
    "SMILES_INPUT": "C[C@H](Oc1ccc(C(=O)NC2CCOCC2)cc1-c1cn(C)nn1)c1ccccn1",
    "MEASURED_METRIC": "Ratio pIC50",
    "MODIFIER": "=",
    "VALUE_REPORTED": 100
  },
  {
    "SMILES_INPUT": "CCNC(=O)c1ccc(O[C@@H](C)c2ccccn2)c(-c2cn(C)nn2)c1",
    "MEASURED_METRIC": "Ratio pIC50",
    "MODIFIER": "=",
    "VALUE_REPORTED": 100
  },
  {
    "SMILES_INPUT": "C[C@H](Oc1ccc(C(=O)NCC2CCOCC2)cc1-c1cn(C)nn1)c1ccccn1",
    "MEASURED_METRIC": "Ratio pIC50",
    "MODIFIER": "=",
    "VALUE_REPORTED": 65
  }
]
